- measurement-target: T1, orthogonal hCD122 receptor (hoRb), hCD122 with H133D and Y134F (human, UniProt P14784 27-550)
- T1 sequence: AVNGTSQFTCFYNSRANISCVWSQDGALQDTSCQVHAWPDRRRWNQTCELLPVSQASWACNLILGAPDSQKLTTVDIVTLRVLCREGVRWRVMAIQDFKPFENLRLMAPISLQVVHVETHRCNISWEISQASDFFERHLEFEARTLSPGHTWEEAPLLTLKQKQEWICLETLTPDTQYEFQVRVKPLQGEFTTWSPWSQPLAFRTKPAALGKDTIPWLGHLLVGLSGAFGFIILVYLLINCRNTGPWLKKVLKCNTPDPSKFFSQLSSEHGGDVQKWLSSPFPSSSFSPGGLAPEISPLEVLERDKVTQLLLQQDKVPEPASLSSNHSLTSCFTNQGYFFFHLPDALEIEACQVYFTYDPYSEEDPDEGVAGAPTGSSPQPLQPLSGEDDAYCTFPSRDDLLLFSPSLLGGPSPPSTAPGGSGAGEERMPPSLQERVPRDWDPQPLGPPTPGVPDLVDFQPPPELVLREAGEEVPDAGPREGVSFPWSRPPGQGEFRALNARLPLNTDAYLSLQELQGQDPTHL
- measurement-description: cell-based or functional assay
measurement-kind: 3F8 Ortho Proliferation Signal 1:50 (cts/min)

The examples below pair each entry with its known result.
| binder | reported-result |
| --- | --- |
| R81I, SQVLKA (ligand) APTSSSTKKTQLQLSQLLVLLKAILNGINNYKNPKLTRMLTFKFYMPKKATELKHLQCLEEELKPLEEVLNLAQSKNFHLIPRDLISNINVIVLELKGSETTFMCEYADETATIVEFLNRWITFCQSIISTLT | 20900 |
| R81D, SQVLKA (ligand) APTSSSTKKTQLQLSQLLVLLKAILNGINNYKNPKLTRMLTFKFYMPKKATELKHLQCLEEELKPLEEVLNLAQSKNFHLDPRDLISNINVIVLELKGSETTFMCEYADETATIVEFLNRWITFCQSIISTLT | 10400 |

[I] L18G, SQVLKA (ligand) APTSSSTKKTQLQLSQLGVLLKAILNGINNYKNPKLTRMLTFKFYMPKKATELKHLQCLEEELKPLEEVLNLAQSKNFHLRPRDLISNINVIVLELKGSETTFMCEYADETATIVEFLNRWITFCQSIISTLT
[II] N88E, SQVLKA (ligand) APTSSSTKKTQLQLSQLLVLLKAILNGINNYKNPKLTRMLTFKFYMPKKATELKHLQCLEEELKPLEEVLNLAQSKNFHLRPRDLISEINVIVLELKGSETTFMCEYADETATIVEFLNRWITFCQSIISTLT
### Prompt Which has the higher 3F8 Ortho Proliferation Signal 1:50, I or II ? Selection: enter the item's label.
### Response I
